# experiment-notes: Plasma pharmacokinetics of bortezomib and docetaxel given in combination
# Type: in vivo, patients
# assay-context: human, plasma, intravenous, 1.3 mg, bortezomib 1.3 mg m^−2 (n=3), day 1, with docetaxel; read-out: CL, mean (%CV) (converted)
quantity-name: clearance (mL/min)
Your answer should be a plain number; it is taken to be in mL/min.

Exercise: Using the record for `CC(C)C[C@H](NC(=O)[C@H](Cc1ccccc1)NC(=O)c1cnccn1)B(O)O` , report its clearance.
Key: 850

---

# experiment-notes: Plasma pharmacokinetics of bortezomib and docetaxel given in combination
# Type: in vivo, patients
# assay-context: human, plasma, intravenous, 100 mg, docetaxel 100 mg m^−2 (n=6), day 1, with bortezomib; read-out: AUC0–∞∞, mean (%CV)
quantity-name: AUC(0-inf) (ng·h/mL)
Your answer should be a plain number; it is taken to be in ng·h/mL.

Exercise: Using the record for CC(=O)O[C@@]12CO[C@@H]1C[C@H](O)[C@@]1(C)C(=O)[C@H](O)C3=C(C)[C@@H](OC(=O)[C@H](O)[C@@H](NC(=O)OC(C)(C)C)c4ccccc4)C[C@@](O)([C@@H](OC(=O)c4ccccc4)[C@H]21)C3(C)C [Docetaxel] , report its AUC(0-inf).
Key: 2730
